Reported AC50 values, UniProt P29274.
Sequence (P29274 whole entry): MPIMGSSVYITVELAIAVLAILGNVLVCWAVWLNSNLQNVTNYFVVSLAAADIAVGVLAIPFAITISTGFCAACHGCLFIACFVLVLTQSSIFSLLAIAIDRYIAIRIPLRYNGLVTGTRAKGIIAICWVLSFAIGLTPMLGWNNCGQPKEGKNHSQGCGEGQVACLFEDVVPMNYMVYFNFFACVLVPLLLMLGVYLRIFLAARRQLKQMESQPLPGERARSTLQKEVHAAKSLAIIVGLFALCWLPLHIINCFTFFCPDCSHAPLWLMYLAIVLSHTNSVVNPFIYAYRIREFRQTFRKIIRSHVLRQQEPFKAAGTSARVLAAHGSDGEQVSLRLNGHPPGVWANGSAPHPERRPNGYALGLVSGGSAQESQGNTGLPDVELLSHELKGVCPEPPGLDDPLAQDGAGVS

- molecule: "C=CCC1(CC(C)C)C(=O)NC(=O)NC1=O"
  AC50: "> 10 µM"
- molecule: "C[C@]1(O)CC[C@H]2[C@@H]3CCC4=CC(=O)CC[C@]4(C)[C@@]3(F)[C@@H](O)C[C@@]21C"
  AC50: "> 10 µM"
- molecule: "C#C[C@]1(O)CC[C@H]2[C@@H]3CCC4=Cc5oncc5C[C@]4(C)[C@H]3CC[C@@]21C"
  AC50: "> 30 µM"
- molecule: "C[C@](N)(Cc1ccc(O)c(O)c1)C(=O)O"
  AC50: "> 30 µM"
- molecule: "C[C@]12CC[C@H]3[C@@H](CCC4=CC(=O)CC[C@@]43C)[C@@H]1CC[C@@H]2O"
  AC50: "> 10 µM"
- molecule: "CN(C)CC/C=C1\\c2ccccc2CSc2ccccc21 [DOTHIEPIN]"
  AC50: "> 30 µM"
- molecule: "CCC1(CC)C(=O)NCC(C)C1=O (stereo not given)"
  AC50: "> 30 µM"
- molecule: "C/C(O)=C(\\C#N)C(=O)Nc1ccc(C(F)(F)F)cc1 [TERIFLUNOMIDE]"
  AC50: "> 30 µM"
- molecule: "COc1ccc(-c2ccc3cc(C(=O)O)ccc3c2)cc1C12CC3CC(CC(C3)C1)C2"
  AC50: "> 30 µM"
- molecule: "NCC(CC(=O)O)c1ccc(Cl)cc1 (stereo not given)"
  AC50: "> 30 µM"
- molecule: "Cc1cn([C@H]2C[C@H](N=[N+]=[N-])[C@@H](CO)O2)c(=O)[nH]c1=O"
  AC50: "> 30 µM"
- molecule: "CC(C)=CCC/C(C)=C/C=C/C(C)=C/C=C/C(C)=C/C=C/C=C(C)/C=C/C=C(C)/C=C/C=C(\\C)CCC=C(C)C"
  AC50: "> 30 µM"
- molecule: "CC(C)Cn1cnc2c(N)nc3ccccc3c21"
  AC50: "19.5 µM"
- molecule: "CCCN(CCC)C(=O)C(CCC(=O)O)NC(=O)c1ccccc1 (stereo not given) [PROGLUMIDE]"
  AC50: "> 30 µM"
- molecule: "CC(CC(c1ccccc1)c1ccccc1)NC(C)(C)C (stereo not given)"
  AC50: "> 30 µM"
- molecule: "C1CCC(C(CC2CCCCN2)C2CCCCC2)CC1 (stereo not given)"
  AC50: "> 30 µM"
- molecule: "O=C(O)/C=C/c1ccc(Cn2ccnc2)cc1"
  AC50: "> 30 µM"
- molecule: "CCCCN1C[C@H](O)[C@@H](O)[C@H](O)[C@H]1CO"
  AC50: "> 30 µM"
- molecule: "CO/N=C(\\C(=O)N[C@@H]1C(=O)N2C(C(=O)O)=C(CSc3nnnn3C)CS[C@H]12)c1csc(N)n1"
  AC50: "> 30 µM"
- molecule: "COc1ccc2c3c1O[C@H]1[C@@H](O)C=C[C@H]4[C@@H](C2)N(C)CC[C@@]341"
  AC50: "> 30 µM"
- molecule: "COC(=O)C1=C(C)NC(C)=C(C(=O)OC(C)(C)CN(C)CCC(c2ccccc2)c2ccccc2)C1c1cccc([N+](=O)[O-])c1 (stereo not given)"
  AC50: "> 30 µM"
- molecule: "CC(C)(C)NCC(O)COc1cccc2c1CCC(=O)N2 (stereo not given)"
  AC50: "> 10 µM"
- molecule: "CCCC1O[C@@H]2C[C@H]3[C@@H]4CCC5=CC(=O)C=C[C@]5(C)[C@H]4[C@@H](O)C[C@]3(C)[C@]2(C(=O)CO)O1 (stereo not given in full) [BUDESONIDE]"
  AC50: "> 10 µM"
- molecule: "COc1cc2c(N)nc(N3CCN(C(=O)OCC(C)(C)O)CC3)nc2c(OC)c1OC"
  AC50: "> 30 µM"
- molecule: "O=C(NCCN1CCOCC1)c1ccc(Cl)cc1 [MOCLOBEMIDE]"
  AC50: "> 10 µM"
- molecule: "C#C[C@]1(O)CC[C@H]2[C@@H]3[C@H](C)CC4=C(CCC(=O)C4)[C@H]3CC[C@@]21C"
  AC50: "> 30 µM"
- molecule: "COc1cccc(C2(O)CCCCC2CN(C)C)c1 (stereo not given)"
  AC50: "> 30 µM"
- molecule: "O=C(O)CCCCCCCC(=O)O"
  AC50: "> 10 µM"
- molecule: "COCCCN1CCC(NC(=O)c2cc(Cl)c(N)c3c2OCC3)CC1 [PRUCALOPRIDE]"
  AC50: "> 30 µM"
- molecule: "CC(=O)Nc1ccc(O)cc1"
  AC50: "> 30 µM"
- molecule: "CCc1c(Cl)c(O)c(Cl)c(O)c1C(=O)O[C@H]1[C@H](O)[C@H](OC)[C@H](OC/C2=C\\C=C\\C[C@H](O)/C(C)=C/[C@H](CC)[C@@H](O[C@@H]3OC(C)(C)[C@@H](OC(=O)C(C)C)[C@H](O)[C@@H]3O)/C(C)=C/C(C)=C/C[C@@H]([C@@H](C)O)OC2=O)O[C@@H]1C"
  AC50: "> 30 µM"
- molecule: "CN(C)CCC=C1c2ccccc2C(C)(C)c2ccccc21"
  AC50: "> 30 µM"
- molecule: "Cc1ccc(-n2nccn2)c(C(=O)N2CCN(c3nc4cc(Cl)ccc4o3)CC[C@H]2C)c1"
  AC50: "> 30 µM"
- molecule: "Clc1ccc(C(c2ccccc2Cl)C(Cl)Cl)cc1 (stereo not given)"
  AC50: "> 10 µM"
- molecule: "CC(C)C(=O)c1c(C(C)C)nn2ccccc12"
  AC50: "17 µM"

====

Reported AC50 values, UniProtKB P23975.
Sequence (P23975 whole entry): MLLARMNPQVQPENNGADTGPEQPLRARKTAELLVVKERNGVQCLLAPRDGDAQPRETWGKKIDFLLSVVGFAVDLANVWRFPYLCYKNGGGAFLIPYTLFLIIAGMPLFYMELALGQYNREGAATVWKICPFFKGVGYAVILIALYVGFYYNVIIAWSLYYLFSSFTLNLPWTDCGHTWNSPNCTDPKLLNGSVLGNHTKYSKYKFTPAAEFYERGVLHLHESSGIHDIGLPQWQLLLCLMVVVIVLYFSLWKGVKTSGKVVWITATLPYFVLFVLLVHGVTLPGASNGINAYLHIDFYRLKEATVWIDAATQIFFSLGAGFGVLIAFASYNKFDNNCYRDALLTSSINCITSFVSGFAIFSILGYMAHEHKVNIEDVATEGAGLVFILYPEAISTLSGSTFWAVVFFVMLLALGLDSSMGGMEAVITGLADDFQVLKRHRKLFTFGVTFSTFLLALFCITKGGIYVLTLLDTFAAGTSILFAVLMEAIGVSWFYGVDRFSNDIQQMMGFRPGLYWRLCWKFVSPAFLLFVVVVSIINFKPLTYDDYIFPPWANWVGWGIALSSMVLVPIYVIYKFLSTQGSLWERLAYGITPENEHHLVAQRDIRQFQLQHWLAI
measured property: AC50

- molecule: "Cc1cc(C(C)(C)C)c(O)c(C)c1CC1=NCCN1"
  measured property: "AC50"
  reported value: "> 30 µM"
- molecule: "Cn1nnc2c(C(N)=O)ncn2c1=O [TEMOZOLOMIDE]"
  measured property: "AC50"
  reported value: "> 30 µM"
- molecule: "Cc1cn([C@H]2C[C@H](N=[N+]=[N-])[C@@H](CO)O2)c(=O)[nH]c1=O"
  measured property: "AC50"
  reported value: "> 10 µM"
- molecule: "COc1cc2nc(N3CCN(C(=O)c4ccco4)CC3)nc(N)c2cc1OC"
  measured property: "AC50"
  reported value: "> 10 µM"
- molecule: "CC[C@H]1[C@@H](O)[C@@H]2[C@H](CC[C@]3(C)[C@@H]([C@H](C)CCC(=O)O)CC[C@@H]23)[C@@]2(C)CC[C@@H](O)C[C@@H]12"
  measured property: "AC50"
  reported value: "> 30 µM"
- molecule: "CCOC(=O)[C@H](CCc1ccccc1)N[C@@H](C)C(=O)N1[C@H](C(=O)O)C[C@@H]2CCC[C@@H]21"
  measured property: "AC50"
  reported value: "> 10 µM"
- molecule: "Nc1nc(N)nc(-c2cc(Cl)ccc2Cl)n1"
  measured property: "AC50"
  reported value: "> 30 µM"
- molecule: "Brc1c(NC2=NCCN2)ccc2nccnc12"
  measured property: "AC50"
  reported value: "> 30 µM"
- molecule: "CC(C)=CCC/C(C)=C/C=C/C(C)=C/C=C/C(C)=C/C=C/C=C(C)/C=C/C=C(C)/C=C/C=C(\\C)CCC=C(C)C"
  measured property: "AC50"
  reported value: "> 30 µM"
- molecule: "CCN1CCN(C(=O)N[C@@H](C(=O)N[C@@H]2C(=O)N3C(C(=O)O)=C(CSc4nnnn4C)CS[C@H]23)c2ccc(O)cc2)C(=O)C1=O"
  measured property: "AC50"
  reported value: "> 30 µM"

====

AC50 for assorted compounds
biological target: Neuronal acetylcholine receptor subunit alpha-4 (Homo sapiens, UniProt P43681); also: assay procedure not described here
Sequence (P43681 whole entry): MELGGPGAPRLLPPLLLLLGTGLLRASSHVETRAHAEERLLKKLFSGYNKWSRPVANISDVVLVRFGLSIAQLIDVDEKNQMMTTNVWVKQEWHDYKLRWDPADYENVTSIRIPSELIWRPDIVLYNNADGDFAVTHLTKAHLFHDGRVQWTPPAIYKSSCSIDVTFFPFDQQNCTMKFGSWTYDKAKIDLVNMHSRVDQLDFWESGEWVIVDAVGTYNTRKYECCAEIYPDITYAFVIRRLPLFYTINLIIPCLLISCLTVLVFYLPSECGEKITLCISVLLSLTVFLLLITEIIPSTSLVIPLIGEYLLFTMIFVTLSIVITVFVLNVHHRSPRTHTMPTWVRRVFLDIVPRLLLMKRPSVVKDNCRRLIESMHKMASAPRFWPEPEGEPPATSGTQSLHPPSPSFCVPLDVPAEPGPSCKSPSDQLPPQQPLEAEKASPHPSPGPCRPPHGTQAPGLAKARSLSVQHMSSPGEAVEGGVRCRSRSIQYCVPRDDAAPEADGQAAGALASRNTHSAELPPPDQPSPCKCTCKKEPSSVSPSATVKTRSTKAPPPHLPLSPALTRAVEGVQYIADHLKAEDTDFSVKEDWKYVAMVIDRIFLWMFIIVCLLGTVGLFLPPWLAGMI

- compound: "CS(=O)(=O)c1ccc(C2=C(c3ccccc3)C(=O)OC2)cc1 [ROFECOXIB]"
  AC50: "> 10 µM"
- compound: "O=C(O)CCCCCCCC(=O)O [AZELAIC ACID]"
  AC50: "> 10 µM"
- compound: "CCCCN1C[C@H](O)[C@@H](O)[C@H](O)[C@H]1CO"
  AC50: "> 30 µM"
- compound: "COCCCN1CCC(NC(=O)c2cc(Cl)c(N)c3c2OCC3)CC1 [PRUCALOPRIDE]"
  AC50: "> 30 µM"
- compound: "CC1=C(C(=O)O)N2C(=O)[C@@H](NC(=O)[C@H](N)c3ccccc3)[C@H]2SC1 [CEPHALEXIN ANHYDROUS]"
  AC50: "> 10 µM"
- compound: "Nc1nc(Cl)nc2c1ncn2[C@H]1C[C@H](O)[C@@H](CO)O1 [CLADRIBINE]"
  AC50: "> 30 µM"
- compound: "CC1(C)NC(=O)N(c2ccc([N+](=O)[O-])c(C(F)(F)F)c2)C1=O [NILUTAMIDE]"
  AC50: "> 30 µM"
- compound: "Cc1ccc(-c2cc(C(F)(F)F)nn2-c2ccc(S(N)(=O)=O)cc2)cc1 [CELECOXIB]"
  AC50: "> 10 µM"
- compound: "O=C(O)CCCCCCNC1c2ccccc2CCc2ccccc21 [AMINEPTINE]"
  AC50: "> 30 µM"
